test system: prolactin; assay: Inhibition of serum prolactin in reserpine-treated male rats; type: in vivo, Sprague-Dawley rat; conditions: Rattus norvegicus, ip, 1 h, read-out: Percent Inhibition of Serum Prolactin
Short version: inhibition in vivo at 0.05 mg/kg at least 90% is t, less is f.

[
  {
    "COMPOUND": "CCCN1C[C@H](CSC)C=C2c3cccc4[nH]cc(c34)C[C@H]21",
    "CATEGORY_LABEL": "f"
  },
  {
    "COMPOUND": "CSC[C@@H]1C[C@@H]2c3cccc4[nH]cc(c34)C[C@H]2N(C)C1 [reference compound]",
    "CATEGORY_LABEL": "f"
  },
  {
    "COMPOUND": "CCCN1C[C@H](COC)C[C@@H]2c3cccc4[nH]cc(c34)C[C@H]21",
    "CATEGORY_LABEL": "t"
  }
]

* * *

tested on: 6-hydroxydopamine-lesioned rats; assay: Turning behavior in 6-hydroxydopamine-lesioned (nigro-neostriatal-lesioned) rats; format: in vivo, rat; settings: IP, 1 mg./kg.

[
  {
    "COMPOUND": "CSC[C@@H]1C[C@@H]2c3cccc4[nH]cc(c34)C[C@H]2N(C)C1 [reference compound]",
    "Duration of Effect": "~ 2 hours"
  },
  {
    "COMPOUND": "CCCN1C[C@H](CSC)C=C2c3cccc4[nH]cc(c34)C[C@H]21",
    "Duration of Effect": "≥ 2 h"
  },
  {
    "COMPOUND": "CCCN1C[C@H](COC)C[C@@H]2c3cccc4[nH]cc(c34)C[C@H]21",
    "Duration of Effect": "≥ 2 h"
  },
  {
    "COMPOUND": "CCN1C[C@H](CSC)C[C@@H]2c3cccc4[nH]cc(c34)C[C@H]21",
    "Duration of Effect": "≥ 2 h"
  }
]

* * *

Tested on: prolactin
Assay: Inhibition of serum prolactin in reserpine-treated male rats
Type: in vivo, Sprague-Dawley rat
Settings: Rattus norvegicus, ip, 1 h, read-out: Percent Inhibition of Serum Prolactin
Protocol: Adult male rats of the Sprague-Dawley strain weighing about 200 g. were housed in an air-conditioned room with controlled lighting (lights on 6 a.m.-8 p.m.) and fed lab chow and water ad libitum. Each rat received an intraperitoneal injection of 2.0 mg. of reserpine in aqueous suspension 18 hours before administration of the ergoline derivative. […] The results were evaluated statistically using Student's "t" test to calculate the level of significance, "p", of the changes in prolactin level.
PROPERTY: inhibition in vivo at 0.05 mg/kg (%)

[
  {
    "MOLECULE": "CCN1C[C@H](CSC)C[C@@H]2c3cccc4[nH]cc(c34)C[C@H]21",
    "NUMERIC_READOUT": 91
  },
  {
    "MOLECULE": "CCCN1CC(CSC)=C[C@@H]2c3cccc4[nH]cc(c34)C[C@H]21",
    "NUMERIC_READOUT": 91
  },
  {
    "MOLECULE": "CCCN1C[C@H](C[S+](C)[O-])C[C@@H]2c3cccc4[nH]cc(c34)C[C@H]21 (stereo partly shown)",
    "NUMERIC_READOUT": 92
  },
  {
    "MOLECULE": "CCCN1C[C@H](CSC)C[C@@H]2c3cccc4[nH]c(Br)c(c34)C[C@H]21",
    "NUMERIC_READOUT": 89
  }
]
